Settings: Caco-2, pH 6.5
Measurement kind: Papp A→B (×10⁻⁶ cm/s)
Field: numeric (×10⁻⁶ cm/s). Do not append units.

Quick one: Papp A→B for "CCO[C@@H]1C[C@H]2C(=O)NC3(CCCC3)C(=O)N[C@@H](C3CCCC3)C(=O)N(C)[C@H](C(=O)N(C)C)CC(=O)N(C)[C@@H](CC(C)C)C(=O)N[C@@H]([C@@H](C)CC)C(=O)N(C)CC(=O)N(C)[C@H]3C/C=C\CCN(C3=O)[C@@H](Cc3ccc(C(F)(F)F)cc3)C(=O)N(C)CC(=O)N[C@@H](CCc3cc(F)c(C(F)(F)F)c(F)c3)C(=O)N2C1" ?
0.0525

The reported numbers originate from patent EP4663198A1.
